Quick reference for pIC50 among some compounds
TGT: recombinant QR2 (Homo sapiens, UniProt P16083)
Sequence (P16083 1-231): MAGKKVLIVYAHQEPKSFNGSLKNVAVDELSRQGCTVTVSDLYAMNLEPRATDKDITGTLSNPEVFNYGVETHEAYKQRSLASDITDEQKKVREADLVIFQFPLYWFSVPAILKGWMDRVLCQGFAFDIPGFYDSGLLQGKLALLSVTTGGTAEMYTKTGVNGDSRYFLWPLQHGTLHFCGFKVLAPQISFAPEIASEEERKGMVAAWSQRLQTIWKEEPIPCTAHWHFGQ
PROTOCOL_DESCRIPTION: Inhibition of QR2 activity in vitro (absorbance at 365 nm, NmeH/menadione)
Type: biochemical
MEASUREMENT_PARAMETERS: set 1; average; read-out: IC50 Average
pIC50: −log10 of the molar value.

{"columns": ["COMPOUND", "pIC50"],
 "data": [
  ["Clc1ccc2c(NCc3ccccn3)ccnc2c1", 6.22],
  ["CCN(CC)CCCC(C)Nc1ccnc2cc(Cl)ccc12 (centres unmarked) [chloroquine, reference compound]", 5.95]
]}
